test system: Pseudomonas aeruginosa; experiment: microbe, parasite or virus in culture
Description: Minimum inhibitory concentration in Pseudomonas aeruginosa,799WT parent organism
In this section, each of the compounds is paired with its reported MIC.

| compound | MIC, ng/mL |
| --- | --- |
| C=C(CO/N=C(\C(=O)N[C@@H]1C(=O)N2C(C(=O)O)=C(CNC(=O)c3cc(O)c(O)c(Br)c3)CSC12)c1csc(N)n1)C(=O)O (stereo partly drawn) | 8 |
| CCO/N=C(\C(=O)N[C@@H]1C(=O)N2C(C(=O)O)=C(CNC(=O)c3cn(CC)c4cc(O)c(O)cc4c3=O)CSC12)c1csc(N)n1 (stereo partly drawn) | 15 |
| CCO/N=C(\C(=O)N[C@@H]1C(=O)N2C(C(=O)O)=C(CNC(=O)c3cc(O)c(O)c(Br)c3)CSC12)c1csc(N)n1 (stereo partly drawn) | 15 |
| CC(C)(O/N=C(\C(=O)N[C@@H]1C(=O)N2C(C(=O)O)=C(CNC(=O)c3cc(O)c(O)c(C#N)c3)CSC12)c1csc(N)n1)C(=O)O (stereo partly drawn) | 8 |
| CC(C)(O/N=C(\C(=O)N[C@@H]1C(=O)N2C(C(=O)O)=C(CCNC(=O)c3cc(O)c(O)c(Br)c3)CSC12)c1csc(N)n1)C(=O)O (stereo partly drawn) | 8 |
| CC(C)(O/N=C(\C(=O)N[C@@H]1C(=O)N2C(C(=O)[O-])=C(C[n+]3ccccc3)CS[C@H]12)c1csc(N)n1)C(=O)O | 125 |
| CCn1cc(C(=O)NCC2=C(C(=O)O)N3C(=O)[C@@H](NC(=O)/C(=N\OC(C)(C)C(=O)O)c4csc(N)n4)C3SC2)c(=O)c2cc(O)c(O)cc21 (stereo partly drawn) | 8 |
| CC(C)(O/N=C(\C(=O)N[C@@H]1C(=O)N2C(C(=O)O)=C(CCOC(=O)c3cc(O)c(O)c(Br)c3)CSC12)c1csc(N)n1)C(=O)O (stereo partly drawn) | 8 |
| Nc1nc(/C(=N/OC(C(=O)O)c2ccccc2)C(=O)N[C@@H]2C(=O)N3C(C(=O)O)=C(CNC(=O)c4cc(O)c(O)c(Br)c4)CSC23)cs1 (stereo partly drawn) | 15 |
| CC(C)(O/N=C(\C(=O)N[C@@H]1C(=O)N2C(C(=O)O)=C(CNC(=O)c3cc(O)c(O)c(Cl)c3)CSC12)c1csc(N)n1)C(=O)O (stereo partly drawn) | 8 |
| CC(C)(O/N=C(\C(=O)N[C@@H]1C(=O)N2C(C(=O)O)=C(CCNC(=O)Nc3ccc(O)c(O)c3)CSC12)c1csc(N)n1)C(=O)O (stereo partly drawn) | 125 |
| CC(C)(O/N=C(/C(=O)N[C@@H]1C(=O)N2C(C(=O)O)=C(COC(=O)c3ccc(O)c(O)c3)CSC12)c1csc(N)n1)C(=O)O (stereo partly drawn) | 8 |
| CC(C)(O/N=C(\C(=O)N[C@@H]1C(=O)N2C(C(=O)O)=C(CNC(=O)c3ccc(O)c(O)c3)CSC12)c1csc(N)n1)C(=O)O (stereo partly drawn) | 8 |

// data source = ChEMBL document CHEMBL1126299
